System: Plasmodium berghei
Assay: Screen against P. berghei liver stage (PbLuc), transformed with Luciferase, at 10uM
Format: functional, HepG2
Settings: tested at 10 uM
Out of some 69,000 compounds screened, about 8,600 (12%) showed an effect of 50% or more. Only a selection was taken, and strong results are over-represented in it overall.
measured metric: INHIBITION (%)
Answers are plain numbers, in %.

Some compounds with recorded INHIBITION:
O=C(CSCc1ccncc1)NCc1csc(Br)c1 :: 43.2
COCCN1CCC2(CC1)CC1(CCN(S(C)(=O)=O)CC1)N(C)C2=O :: 40.8
CSc1ccc(C(C(=O)O)N2CCCC2)cc1 (stereo not given) :: 34.9
Cc1nccn1CCN(C)C(=O)C1CCCN(C2CCOCC2)C1 (stereo not given) :: 34.1
Cc1cc(C)cc(N(C)S(=O)(=O)c2cc(C(=O)O)cs2)c1 :: 34.7
CCN1CCc2c(sc3c2C(=O)NC(C=Cc2ccccc2)N3)C1 (stereo not given) :: 15.1

Look at each compound and report its INHIBITION.
1. Cc1cccc(CNCC2COC3(CCCC3)O2)c1C (stereo not given)
2. NC1CCCN(Cc2cccc(C(F)(F)F)c2)C1=O (stereo not given)
3. Cc1ccc(CN(CCN(C)C)Cc2ncc[nH]2)s1

Resp:
1. 50
2. 57.2
3. 17.6
